target_system: T1, LIN7B, Q9HAP6
T1 sequence (Q9HAP6 88-185, limits assumed, looked up): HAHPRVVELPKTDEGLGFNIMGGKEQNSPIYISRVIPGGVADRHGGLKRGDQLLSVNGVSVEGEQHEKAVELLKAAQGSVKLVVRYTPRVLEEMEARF
method: holdup assay
Parameters: key: below the threshold = too weak to quantify, mostly under pKd 3.1 to 4
particulars: plain residues with an end cap or a label only (N-terminal biotin on a linker: ahx)

binder	pKd
LSDPSVSTVV [GRIN1, Q05586;Q05586-2]	below the threshold
SDSSGQEYSL [KCTD3, Q9Y597]	below the threshold
TVICWPGSLV [LNX2, Q8N448]	4.46
HNAFLSVTTV [PDZRN4, Q6ZMN7]	below the threshold

Just for reference, paper PMC9482650 is where these values come from.
